// data source = FireProtDB (doi:10.1021/bi0525223)

B1: Protein P-30, P22069 (parent)
chain: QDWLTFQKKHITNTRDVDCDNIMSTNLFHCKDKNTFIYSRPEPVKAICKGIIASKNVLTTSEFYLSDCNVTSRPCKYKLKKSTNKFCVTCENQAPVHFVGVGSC

Variants of: B1
Condition: Lithobates pipiens; pH 5.5; Thermal; DSC; sodium acetate 100 mM; reversible: Yes; structure 1ONC; whole UniProt chain shown
Assay readout: Tm (°C)
One number for each entry, in °C.

Consider the reported Tm for these variants:
Mutations	Tm, °C
F36Y	79.2
F28T	77.4
F28A	78.1

(Q) Recall and state the measured Tm for C87A C104A .
(A) 69.4
